Tgt: HLA A*3201 (Homo sapiens, UniProt P04439, A270S/D101S/D185E/E176V/E277Q/F133L/G103R/G107R/G231S/H175R/I121M/I218V/I322F/K168Q/L105A/L300P/L318F/M331R/P208A/P217A/Q94H/R106L/R138Q/S129P/T104I/T323A/T345S/V100E/V321M/V358M)
Test Description: biochemical
Where a SMILES comes first, the peptide text is derived from it.
Here the recorded pIC50 is given for each entry.
In plain terms, pIC50 is the concentration in mol/L turned into minus its base-10 logarithm.

Compound	pIC50
CC(C)C[C@H](NC(=O)[C@H](CCCCN)NC(=O)[C@H](CCCCN)NC(=O)[C@H](Cc1ccc(O)cc1)NC(=O)[C@H](CC(C)C)NC(=O)[C@@H](NC(=O)[C@@H](N)Cc1ccc(O)cc1)[C@@H](C)O)C(=O)N[C@@H](CO)C(=O)N[C@@H](Cc1ccccc1)C(=O)O [3102.0333] (H-YTLYKKLSF-OH)	6.71

Input line: Endpoint output: pIC50 of CC[C@H](C)[C@H](NC(=O)[C@@H](NC(=O)[C@@H](NC(=O)[C@H](Cc1ccccc1)NC(=O)[C@H](Cc1ccccc1)NC(=O)[C@@H](NC(=O)[C@H](CC(C)C)NC(=O)[C@@H](NC(=O)[C@@H](N)CO)[C@@H](C)O)[C@@H](C)CC)C(C)C)[C@@H](C)CC)C(=O)O [3102.0317] (H-STLIFFVII-OH) . Value?
Output line: 7.74

----------
Here the recorded Normalized average relative binding affinity(ARB) is given for each entry.
Tgt: HLA B*1501 (Homo sapiens, UniProt P01889, A329T/A93T/A95T/C349S/D201E/D98Y/E187L/E204Q/E69M/E70A/K202T/N87E/Q94N/R155S/R180W/S121R/S35A/S48A/V306I/V36M/Y140S/Y91S)
Test Description: biochemical
Assay type: binding
Respond using a number only.

          sequence_chain  measurement
0  XXXVXXXXX [3064.0078]         0.52
1  XXXXPXXXX [3064.0093]         0.89
2  XXXXXFXXX [3064.0105]          1.0
3  XXXXXTXXX [3064.0117]         0.55
4  XXXXXXPXX [3064.0133]         0.62
5  XXXXXXXKX [3064.0149]         0.24
6  XXXXXGXXX [3064.0106]         0.35
7  XXXXXXVXX [3064.0138]         0.56
8  XXXXXXWXX [3064.0139]         0.31
9  XXXXXXKXX [3064.0129]         0.15

Input line: Endpoint output: Normalized average relative binding affinity(ARB) of XXXXXMXXX [3064.0111] . Value?
Output line: 0.44

Input line: Similarly, XXXXXXXEX [3064.0144] ?
Output line: 0.23

Input line: Similarly, XXXXXXXHX [3064.0147] ?
Output line: 1.0

Input line: Similarly, XXXXXXGXX [3064.0126] ?
Output line: 0.52

Input line: Similarly, XXXXXXXWX [3064.0159] ?
Output line: 0.035

Input line: Similarly, XXXXXXMXX [3064.0131] ?
Output line: 0.54

All values here come from paper PMC2248166.
